Cited source for all entries: ChEMBL document CHEMBL1136055

# RUN_DESCRIPTION: Log D was evaluated
# Format: physicochemical
# REPORTED_CONDITIONS: octanol/water
REPORTED_ENDPOINT: logD

                                chem_smiles  reported_endpoint  measured_number
0  COc1ccc(-c2cc(-c3nc(C)cs3)c(=O)n(C)c2-c2ccnnc2)cc1               logD              2.7

###

# ASSAY_SYSTEM: GABA-A receptor; alpha-2/beta-3/gamma-2 (Homo sapiens, UniProt P18507+P28472+P47869)
# Sequence (P18507 whole entry): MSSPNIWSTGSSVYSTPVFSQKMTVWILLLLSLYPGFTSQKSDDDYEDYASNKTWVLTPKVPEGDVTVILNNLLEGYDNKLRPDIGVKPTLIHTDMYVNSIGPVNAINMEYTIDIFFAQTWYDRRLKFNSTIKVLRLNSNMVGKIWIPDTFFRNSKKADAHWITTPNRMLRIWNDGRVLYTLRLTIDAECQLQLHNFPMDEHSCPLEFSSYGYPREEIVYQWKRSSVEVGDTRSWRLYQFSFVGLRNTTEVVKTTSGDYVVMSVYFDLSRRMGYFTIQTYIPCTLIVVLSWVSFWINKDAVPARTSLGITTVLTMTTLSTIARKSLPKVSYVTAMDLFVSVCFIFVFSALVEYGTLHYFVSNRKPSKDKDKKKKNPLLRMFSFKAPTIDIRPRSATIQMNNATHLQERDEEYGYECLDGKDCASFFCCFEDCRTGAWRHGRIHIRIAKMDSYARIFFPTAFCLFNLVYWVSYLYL
# Sequence (P28472 whole entry): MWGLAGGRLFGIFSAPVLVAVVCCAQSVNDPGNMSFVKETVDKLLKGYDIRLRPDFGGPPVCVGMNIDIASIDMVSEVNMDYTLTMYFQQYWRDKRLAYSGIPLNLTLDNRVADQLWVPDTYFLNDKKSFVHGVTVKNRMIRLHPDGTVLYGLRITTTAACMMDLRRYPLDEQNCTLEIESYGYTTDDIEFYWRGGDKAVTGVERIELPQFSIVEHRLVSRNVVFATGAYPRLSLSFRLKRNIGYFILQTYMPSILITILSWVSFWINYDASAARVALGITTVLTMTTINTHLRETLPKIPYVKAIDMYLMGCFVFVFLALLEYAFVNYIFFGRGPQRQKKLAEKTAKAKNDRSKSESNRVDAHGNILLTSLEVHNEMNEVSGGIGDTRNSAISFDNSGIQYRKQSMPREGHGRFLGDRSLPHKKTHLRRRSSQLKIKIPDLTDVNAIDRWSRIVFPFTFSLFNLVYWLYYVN
# Sequence (P47869 whole entry): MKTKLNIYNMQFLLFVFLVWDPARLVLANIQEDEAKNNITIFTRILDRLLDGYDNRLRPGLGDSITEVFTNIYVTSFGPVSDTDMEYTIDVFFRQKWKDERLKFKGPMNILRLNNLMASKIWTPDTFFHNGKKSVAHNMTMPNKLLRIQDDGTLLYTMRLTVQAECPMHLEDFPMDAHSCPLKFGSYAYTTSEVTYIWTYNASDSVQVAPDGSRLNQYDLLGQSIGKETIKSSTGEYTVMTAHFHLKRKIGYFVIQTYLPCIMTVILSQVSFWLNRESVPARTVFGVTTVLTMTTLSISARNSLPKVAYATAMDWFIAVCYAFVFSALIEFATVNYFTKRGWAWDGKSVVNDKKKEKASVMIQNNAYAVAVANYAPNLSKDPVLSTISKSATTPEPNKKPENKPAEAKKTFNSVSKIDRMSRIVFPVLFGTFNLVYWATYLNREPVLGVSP
# RUN_DESCRIPTION: Displacement of [3H]Ro-151788 from human Gamma-aminobutyric acid A receptor alpha-2-beta-3-gamma-2 stably expressed in L(tk-) cells
# Type: cell-based
pKi: −log10 of the molar value.
Lab note: compare pKi against 7. Equal or greater, write Yes. Smaller, write No.

                                chem_smiles  qualitative_label
0  COc1ccc(-c2cc(-c3nc(C4CC4)cs3)c(=O)n(C)c2-c2ccncc2)cc1                Yes
1  COC(=O)c1cc(-c2ccc(OC)cc2)c(-c2ccccn2)n(C)c1=O                 No
2  COc1ccc(-c2cc(-c3noc(C4CC4)n3)c(=O)n(C)c2-c2ccncc2)cc1                 No
3  COc1ccc(-c2cc(-c3nc(C)cs3)c(=O)n(C)c2-c2ccncc2)cc1                Yes
4  COC(=O)c1cc(-c2ccc(OC)cc2)c(-c2ccncc2)n(C)c1=O                 No
5  COc1ccc(-c2cc(-c3ncc(C)s3)c(=O)n(C)c2-c2ccncc2)cc1                 No
6  Cc1csc(-c2cc(-c3ccc(F)cc3)c(-c3ccncc3)n(C)c2=O)n1                Yes
7  COc1ccc(-c2cc(C#N)c(=O)n(C)c2-c2ccc(N(C)C)cc2)cc1                 No
8  COc1ccc(-c2cc(-c3nccs3)c(=O)n(C)c2-c2ccncc2)cc1                Yes
